EXPERIMENT_NOTES: Chemical stability of prodrugs in aqueous buffers
Format: physicochemical
MEASUREMENT_PARAMETERS: aqueous buffer pH 8.0, 37° C.
Provide the recorded % of Prodrug Remaining after 60 min for the entries that follow.
Answer with a number only, understood to be in %.

Task: Write down % of Prodrug Remaining after 60 min measured for item CC(C)C(=O)OCOC(=O)NC[C@H](CC(=O)[O-])c1ccc(Cl)cc1.[Na+]
Output: 102

Task: Write down % of Prodrug Remaining after 60 min measured for item CCCC(=O)O[C@H](OC(=O)NC[C@H](CC(=O)[O-])c1ccc(Cl)cc1)C(C)C.[Na+]
Output: 93

Task: Write down % of Prodrug Remaining after 60 min measured for item O=C([O-])C[C@@H](CNC(=O)OCOC(=O)C1CCCCC1)c1ccc(Cl)cc1.[Na+]
Output: 102

Task: Write down % of Prodrug Remaining after 60 min measured for item CC(C)C(=O)O[C@H](C)OC(=O)NC[C@H](CC(=O)[O-])c1ccc(Cl)cc1.[Na+]
Output: 100

Task: Write down % of Prodrug Remaining after 60 min measured for item CCCC(=O)OCOC(=O)NC[C@H](CC(=O)[O-])c1ccc(Cl)cc1.[Na+]
Output: 100

Task: Write down % of Prodrug Remaining after 60 min measured for item CC(C)C(=O)O[C@@H](OC(=O)NC[C@H](CC(=O)O)c1ccc(Cl)cc1)C(C)C
Output: 100

Task: Write down % of Prodrug Remaining after 60 min measured for item O=C([O-])C[C@@H](CNC(=O)OCOC(=O)c1cccs1)c1ccc(Cl)cc1.[Na+]
Output: 100

Task: Write down % of Prodrug Remaining after 60 min measured for item CC(C)C(=O)OC(OC(=O)NC[C@H](CC(=O)[O-])c1ccc(Cl)cc1)C(C)C.[Na+] (stereo partly drawn)
Output: 100

Task: Write down % of Prodrug Remaining after 60 min measured for item CC(=O)OC(C)OC(=O)NC[C@H](CC(=O)[O-])c1ccc(Cl)cc1.[Na+] (stereo partly drawn)
Output: 81
